Value source: patent US12281162

# assay target: T1, human G-protein-coupled receptor family C group 5 member D (GPRC5D) (human, UniProt Q9NZD1 1-345)
# T1 construct: whole, on cells; also called human GPRC5D protein
# T1 sequence (Q9NZD1 whole entry): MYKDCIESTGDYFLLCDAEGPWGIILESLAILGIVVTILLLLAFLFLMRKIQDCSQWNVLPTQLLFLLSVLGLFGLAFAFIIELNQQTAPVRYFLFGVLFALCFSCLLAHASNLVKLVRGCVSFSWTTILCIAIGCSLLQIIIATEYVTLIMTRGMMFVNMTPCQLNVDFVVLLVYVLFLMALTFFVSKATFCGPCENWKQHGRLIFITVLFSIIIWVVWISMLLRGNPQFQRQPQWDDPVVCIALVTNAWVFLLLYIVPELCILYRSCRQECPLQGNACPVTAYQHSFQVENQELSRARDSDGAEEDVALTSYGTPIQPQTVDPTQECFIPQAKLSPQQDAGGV
# assay name: FACS, CHO-K1/GPRC5D
endpoint name: Span
Please give the numeric answer without any surrounding text.

Q: If you can, please state the reported Span value of 6-H3L3 (antibody, V domains shown, humanized 6G10D9, VH v3 x VL v3) VH: QVQLVQSGAEVAKPGASVKVSCKASGYTFTTYTMHWVKQAPGQGLEWLGYINPSSGYTNYNQKFKDRVTMTADTSTSTVYMELSSLRSEDTAVYYCASLRSRGYFDYWGQGTLVTVSS VL: DIQMTQSPSFLSTSVGDRVTITCKASQNVGTAVVWYQQKPGKSPKLLIYSASNRYTGVPSRFSGSGSGTEFTLTISSMQPEDFATFFCQQYSSYPYTFGQGTKLEIK .
A: 115000
